- Tested on: non-CF clinical isolates of P. aeruginosa
- test.summary: MIC vs non-CF clinical isolates of P. aeruginosa
- Type: cell-based
- test.parameters: Pseudomonas aeruginosa, P. aer psa-6b; MIC key class
assay.endpoint: MIC

Look over these answered cases.
C[C@@H](N)[C@H](NC(=O)c1ccc(C#Cc2ccccc2)cc1)C(=O)NO [Example 13] = < 6.25 µg/mL
C[C@@H](O)[C@H](NC(=O)c1ccc(C#Cc2ccccc2)cc1)C(=O)NO [Example 12] = < 6.25 µg/mL
CCc1ccc(-c2ccc(C(=O)N[C@@H](CN)C(=O)NO)cc2)cc1 [Example 280] = < 6.25 µg/mL
C[C@@H](O)[C@H](NC(=O)c1ccc(-c2ccc(Br)cc2)cc1)C(=O)NO [Example 315] = < 6.25 µg/mL
NC[C@H](NC(=O)c1ccc(C#Cc2ccccc2)cc1)C(=O)NO [Example 366] = 6.25 to 50 µg/mL

With those in mind, consider the next compound.
Field request: MIC | item: NC[C@H](NC(=O)c1ccc(C#CC#Cc2ccccc2)cc1)C(=O)NO [Example 481]
< 6.25 µg/mL

----------
Below, each entry is listed alongside its reported IC50.
- test.system: P. aeruginosa LpxC (Pseudomonas aeruginosa)
- Sequence (P47205 whole entry): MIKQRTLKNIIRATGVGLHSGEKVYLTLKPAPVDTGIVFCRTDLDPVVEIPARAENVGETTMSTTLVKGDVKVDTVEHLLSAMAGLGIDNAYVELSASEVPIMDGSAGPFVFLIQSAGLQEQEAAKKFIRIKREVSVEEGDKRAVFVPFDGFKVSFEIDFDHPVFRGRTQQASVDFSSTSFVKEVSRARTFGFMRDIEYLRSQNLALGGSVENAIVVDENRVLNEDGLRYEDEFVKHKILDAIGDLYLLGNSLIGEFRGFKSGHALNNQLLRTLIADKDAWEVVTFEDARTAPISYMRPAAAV
- test.summary: P. aeruginosa LpxC Inhibition Assay
- Assay type: biochemical

Look over these answered cases.
C[C@@H](O)[C@H](NC(=O)c1ccc(C#CC#Cc2ccccc2)cc1)C(=O)NO = < 100 nM
C[C@@H](O)[C@H](NC(=O)c1ccc(C#Cc2ccccc2)cc1)C(=O)NO = < 100 nM

Field request: IC50 | item: C[C@@H](N)[C@H](NC(=O)c1ccc(C#Cc2ccccc2)cc1)C(=O)NO
< 100 nM

Now this one: CCc1ccc(-c2ccc(C(=O)N[C@H](C(=O)NO)[C@@H](C)N)cc2)cc1
< 100 nM

----------
- System: Alcaligenes xylosoxidans
- test.summary: MIC vs non-fermenting organisms: Alcaligenes xylosoxidans
- Type: cell-based
- test.parameters: Achromobacter xylosoxidans; Alcal. xyl; comparator antibacterials
- Description: Bacterial isolates were cultivated from −70° C. frozen stocks by two consecutive overnight passages at 35° C. in ambient air on 5% blood agar (Remel, Lenexa, Kans.). […] Minimum Inhibitory Concentrations (MICs) were determined by the broth microdilution method in accordance with the National Committee for Clinical Laboratory Standards (NCCLS) guidelines. […] Following incubation, the lowest concentration of the drug that prevented visible growth was recorded as the MIC.
Below, each entry is listed alongside its reported MIC.
Provide the measurement as a number trailed by its unit.

Field request: MIC | item: C[C@H]1[C@H](NC(=O)/C(=N\OC(C)(C)C(=O)O)c2csc(N)n2)C(=O)N1S(=O)(=O)O [Aztreonam, aztreonam, reference compound]
32 µg/mL

Now this one: C[C@@H](O)[C@H]1C(=O)N2C(C(=O)O)=C(S[C@@H]3CN[C@H](C(=O)N(C)C)C3)[C@H](C)[C@H]12 [Meropenem, meropenem, reference compound]
0.5 µg/mL

----------
- System: Stenotrophomonas maltophilia
- test.summary: MIC vs non-fermenting organisms: Stenotrophomonas maltophilia
- Format: cell-based
- test.parameters: Stenotrophomonas maltophilia, S. malt.; MIC key class; read-out: MIC
Below, each entry is listed alongside its reported MIC.

C[C@@H](O)[C@H](NC(=O)c1ccc(C#CC#Cc2ccc(NC(=O)CNc3ccccc3)cc2)cc1)C(=O)NO [Example 777] = > 50 µg/mL
CCc1ccc(-c2ccc(C(=O)N[C@H](C(=O)NO)[C@@H](C)N)cc2)cc1 [Example 779] = 6.25 to 50 µg/mL
CCc1ccc(-c2ccc(C(=O)N[C@@H](CN)C(=O)NO)cc2)cc1 [Example 280] = 6.25 to 50 µg/mL

Field request: MIC | item: C[C@@H](O)[C@H](NC(=O)c1ccc(C#Cc2ccccc2)cc1)C(=O)NO [Example 12]
< 6.25 µg/mL

Now this one: NC[C@H](NC(=O)c1ccc(C#CC#Cc2ccccc2)cc1)C(=O)NO [Example 481]
> 50 µg/mL

Now this one: NC[C@H](NC(=O)c1ccc(C#Cc2ccccc2)cc1)C(=O)NO [Example 366]
6.25 to 50 µg/mL

Now this one: C[C@@H](N)[C@H](NC(=O)c1ccc(C#Cc2ccccc2)cc1)C(=O)NO [Example 13]
6.25 to 50 µg/mL

----------
- Tested on: Enterobacter cloacae
- test.summary: MIC vs enteric organisms: Enterobacter cloacae
- Assay type: cell-based
- test.parameters: E. clo., comparator antibacterials
assay.endpoint: MIC

Look over these answered cases.
C[C@@H](O)[C@H]1C(=O)N2C(C(=O)O)=C(S[C@@H]3CN[C@H](C(=O)N(C)C)C3)[C@H](C)[C@H]12 [Meropenem, meropenem, reference compound] = ≤ 0.06 µg/mL
CO/N=C(\C(=O)N[C@@H]1C(=O)N2C(C(=O)[O-])=C(C[N+]3(C)CCCC3)CS[C@H]12)c1csc(N)n1 [Cefepime, cefepime, reference compound] = ≤ 0.13 µg/mL
NC[C@H]1O[C@H](O[C@H]2[C@H](O)[C@@H](O[C@H]3O[C@H](CO)[C@@H](O)[C@H](N)[C@H]3O)[C@H](N)C[C@@H]2N)[C@H](N)C[C@@H]1O [Tobramycin, tobramycin, reference compound] = 0.06 µg/mL
CC(C)(O/N=C(\C(=O)N[C@@H]1C(=O)N2C(C(=O)[O-])=C(C[n+]3ccccc3)CS[C@H]12)c1csc(N)n1)C(=O)O [Ceftazidime, ceftazidime, reference compound] = 0.25 µg/mL

Field request: MIC | item: C[C@H]1[C@H](NC(=O)/C(=N\OC(C)(C)C(=O)O)c2csc(N)n2)C(=O)N1S(=O)(=O)O [Aztreonam, aztreonam, reference compound]
≤ 0.13 µg/mL

----------
- Tested on: Proteus mirabilis
- test.summary: MIC vs enteric organisms: Proteus mirabilis
- Format: cell-based
- test.parameters: P. mir., MIC key class
assay.endpoint: MIC

Look over these answered cases.
C[C@@H](O)[C@H](NC(=O)c1ccc(C#Cc2ccccc2)cc1)C(=O)NO = < 6.25 µg/mL
CCc1ccc(-c2ccc(C(=O)N[C@@H](CN)C(=O)NO)cc2)cc1 = 6.25 to 50 µg/mL
NC[C@H](NC(=O)c1ccc(C#Cc2ccc(NC(=O)CNC3CC3)cc2)cc1)C(=O)NO = > 50 µg/mL
C[C@@H](N)[C@H](NC(=O)c1ccc(C#Cc2ccccc2)cc1)C(=O)NO = < 6.25 µg/mL

With those in mind, consider the next compound.
GET /values?readout=MIC&system=Proteus mirabilis&item= C[C@@H](O)[C@H](NC(=O)c1ccc(C#CC#Cc2ccccc2)cc1)C(=O)NO
< 6.25 µg/mL

----------
- Tested on: non-CF clinical isolates of P. aeruginosa
- test.summary: MIC vs non-CF clinical isolates of P. aeruginosa
- Assay type: cell-based
- test.parameters: Pseudomonas aeruginosa, P. aer psa-6b; MIC key class
assay.endpoint: MIC

NC[C@H](NC(=O)c1ccc(C#Cc2ccc(NC(=O)CNC3CC3)cc2)cc1)C(=O)NO = < 6.25 µg/mL
C[C@@H](O)[C@H](NC(=O)c1ccc(C#CC#Cc2ccccc2)cc1)C(=O)NO = < 6.25 µg/mL

Field request: MIC | item: C[C@@H](O)[C@H](NC(=O)c1ccc(C#CC#Cc2ccc(NC(=O)CNc3ccccc3)cc2)cc1)C(=O)NO
6.25 to 50 µg/mL

Now this one: CCc1ccc(-c2ccc(C(=O)N[C@H](C(=O)NO)[C@@H](C)N)cc2)cc1
< 6.25 µg/mL

Now this one: C[C@@H](O)[C@H](NC(=O)c1ccc(C#CC#Cc2ccc(NC(=O)CNc3ccccn3)cc2)cc1)C(=O)NO
< 6.25 µg/mL

----------
- Test system: Alcaligenes xylosoxidans
- test.summary: MIC vs non-fermenting organisms: Alcaligenes xylosoxidans
- Type: cell-based
- test.parameters: Achromobacter xylosoxidans; Alcal. xyl; comparator antibacterials
Below, each entry is listed alongside its reported MIC.
// note: answer is a bare numeric in µg/mL

Look over these answered cases.
CC(C)(O/N=C(\C(=O)N[C@@H]1C(=O)N2C(C(=O)[O-])=C(C[n+]3ccccc3)CS[C@H]12)c1csc(N)n1)C(=O)O [Ceftazidime, ceftazidime, reference compound] = 1
CO/N=C(\C(=O)N[C@@H]1C(=O)N2C(C(=O)[O-])=C(C[N+]3(C)CCCC3)CS[C@H]12)c1csc(N)n1 [Cefepime, cefepime, reference compound] = 8

With those in mind, consider the next compound.
Field request: MIC | item: NC[C@H]1O[C@H](O[C@H]2[C@H](O)[C@@H](O[C@H]3O[C@H](CO)[C@@H](O)[C@H](N)[C@H]3O)[C@H](N)C[C@@H]2N)[C@H](N)C[C@@H]1O [Tobramycin, tobramycin, reference compound]
64
